Values compiled from IntAct's records for PubMed 31515488.

B1: L-fucose dehydrogenase (Homo sapiens), Q9BPX1 (parent)
chain: MATGTRYAGKVVVVTGGGRGIGAGIVRAFVNSGARVVICDKDESGGRALEQELPGAVFILCDVTQEDDVKTLVSETIRRFGRLDCVVNNAGHHPPPQRPEETSAQGFRQLLELNLLGTYTLTKLALPYLRKSQGNVINISSLVGAIGQAQAVPYVATKGAVTAMTKALALDESPYGVRVNCISPGNIWTPLWEELAALMPDPRATIREGMLAQPLGRMGQPAEVGAAAVFLASEANFCTGIELLVTGGAELGYGCKASRSTPVDAPDIPS

# Variants of: B1
# condition: with psa1_human PSMA1, P25786
# Sequence (P25786 whole entry): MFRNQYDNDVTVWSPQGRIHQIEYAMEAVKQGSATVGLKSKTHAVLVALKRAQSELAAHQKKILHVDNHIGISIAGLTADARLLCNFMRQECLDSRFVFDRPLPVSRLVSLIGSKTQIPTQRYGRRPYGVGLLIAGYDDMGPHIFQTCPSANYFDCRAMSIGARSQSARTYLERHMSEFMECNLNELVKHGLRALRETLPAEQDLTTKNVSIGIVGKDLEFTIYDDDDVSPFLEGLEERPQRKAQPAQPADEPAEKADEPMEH

>  <mutation key>
A56T

>  <effect of a mutation on the interaction>
with no effect

$$$$
>  <mutation key>
G16W

>  <effect of a mutation on the interaction>
with no effect

$$$$
>  <mutation key>
N31D

>  <effect of a mutation on the interaction>
with no effect

$$$$
